Give % Inhibition at 30 µM for every item shown.
target: CKα1 (Homo sapiens, UniProt P35790); construct: an N-terminally His-tagged truncated form of CKα1 (Δ75–457) was cloned into a pET-28a vector; His tag (N); made in house; host or cells: E. coli BL21 (DE3) Star; assay: Choline kinase assay ([methyl-14C]choline into PCho, purified enzyme); type: biochemical; settings: purified CKα1, inhibitor 30 µM, end-point assay
Sequence (P35790 75-457): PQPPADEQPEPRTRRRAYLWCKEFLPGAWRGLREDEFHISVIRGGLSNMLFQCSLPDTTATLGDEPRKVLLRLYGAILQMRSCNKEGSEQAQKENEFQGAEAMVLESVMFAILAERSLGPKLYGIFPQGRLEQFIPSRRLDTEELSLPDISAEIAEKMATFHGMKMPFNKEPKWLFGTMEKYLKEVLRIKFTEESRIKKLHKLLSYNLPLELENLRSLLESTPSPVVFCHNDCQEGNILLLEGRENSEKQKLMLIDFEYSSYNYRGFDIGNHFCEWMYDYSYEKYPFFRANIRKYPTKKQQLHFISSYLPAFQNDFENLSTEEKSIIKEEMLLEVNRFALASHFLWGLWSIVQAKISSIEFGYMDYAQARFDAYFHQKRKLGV
One number for each entry, in %.

Task: Tell me reported % Inhibition at 30 µM for [Br-].[Br-].c1cc2c(s1)c(N1CCCC1)cc[n+]2Cc1ccc(OCCOc2ccc(C[n+]3ccc(N4CCCC4)c4sccc43)cc2)cc1 [Ff-2] , tested with CKα1 (Homo sapiens, UniProt P35790).
Result: 82.77

Task: Subsequent entry: [Br-].[Br-].c1cc2c(s1)c(N1CCCCC1)nc[n+]2Cc1ccc(CCCCc2ccc(C[n+]3cnc(N4CCCCC4)c4sccc43)cc2)cc1 [Fa-33]
Result: 97.80

Task: And the next one, [Br-].[Br-].c1cc2c(N3CCCC3)nc[n+](Cc3ccc(CCc4ccc(C[n+]5cnc(N6CCCC6)c6ccsc65)cc4)cc3)c2s1 [Fg-15] ?
Result: 81.29

Task: What about [Br-].[Br-].c1cc2c(s1)c(N1CCCCC1)nc[n+]2Cc1ccc(-c2ccc(C[n+]3cnc(N4CCCCC4)c4sccc43)cc2)cc1 [Fa-24] ?
Result: 98.40

Report % Inhibition at 30 µM for each item below.
1. [Br-].[Br-].c1cc2c(N3CCCCC3)nc[n+](Cc3ccc(-c4ccc(C[n+]5cnc(N6CCCCC6)c6ccsc65)cc4)cc3)c2s1 [Fg-30]
2. [Br-].[Br-].c1cc2c(N3CCCCC3)nc[n+](Cc3ccc(CCCCc4ccc(C[n+]5cnc(N6CCCCC6)c6ccsc65)cc4)cc3)c2s1 [Ff-6]

Result:
1: 85.71; 2: 73.19
